# System: ZR-75-1 Tam1
# testName: viability inhibition at highest dose (% inhibition); higher = more growth inhibition
# experimentalParameters: 4-OH-tamoxifen in medium 1 µM; 72 h
Structures can show the parent of a compound that is named as a salt.
Reported viability inhibition at highest dose values for a set of compounds

compound: CC[C@@]1(O)C(=O)OCc2c1cc1n(c2=O)Cc2cc3c(CN(C)C)c(O)ccc3nc2-1 [Topotecan] (drug 1000 nM)
systemTested: ZR-75-1 Tam1
viability inhibition at highest dose: 40.6

compound: CCC/C=C/C=C/C(=O)O[C@H]1/C(=C/C(=O)OC)C[C@H]2C[C@H]([C@@H](C)O)OC(=O)C[C@H](O)C[C@@H]3C[C@H](OC(C)=O)C(C)(C)[C@](O)(C[C@@H]4C/C(=C/C(=O)OC)C[C@H](/C=C/C(C)(C)[C@]1(O)O2)O4)O3 [Bryostatin 1] (drug 100 nM)
systemTested: ZR-75-1 Tam1
viability inhibition at highest dose: 10.2

compound: Nc1nc2[nH]cc(CCc3ccc(C(=O)N[C@@H](CCC(=O)O)C(=O)O)cc3)c2c(=O)[nH]1 [Pemetrexed] (drug 10000 nM)
systemTested: ZR-75-1 Tam1
viability inhibition at highest dose: 1.51

compound: CC(C)Cn1cnc2c(N)nc3ccccc3c21 [Imiquimod] (drug 10000 nM)
systemTested: ZR-75-1 Tam1
viability inhibition at highest dose: -4.93

compound: CO[C@H]1C[C@@H]2CC[C@@H](C)[C@@](O)(O2)C(=O)C(=O)N2CCCC[C@H]2C(=O)O[C@H]([C@H](C)C[C@@H]2CC[C@@H](OCCO)[C@H](OC)C2)CC(=O)[C@H](C)/C=C(\C)[C@@H](O)[C@@H](OC)C(=O)[C@H](C)C[C@H](C)/C=C/C=C/C=C/1C [Everolimus] (drug 100 nM)
systemTested: ZR-75-1 Tam1
viability inhibition at highest dose: 34.2

compound: C[C@@H]1C[C@H]2[C@@H]3CCC4=CC(=O)C=C[C@]4(C)[C@@]3(F)[C@@H](O)C[C@]2(C)[C@@]1(O)C(=O)CO [Dexamethasone (Decadron)] (drug 10000 nM)
systemTested: ZR-75-1 Tam1
viability inhibition at highest dose: 3.7

compound: COC1=CC(c2cc3ccccc3[nH]2)=N/C1=C\c1[nH]c(C)cc1C [Obatoclax (GX15-070)] (drug 10000 nM)
systemTested: ZR-75-1 Tam1
viability inhibition at highest dose: 23.7

compound: COc1cc2c(cc1O)CC[C@@H]1[C@@H]2CC[C@]2(C)[C@@H](O)CC[C@@H]12 [2-methoxyestradiol (Panzem)] (drug 10000 nM)
systemTested: ZR-75-1 Tam1
viability inhibition at highest dose: 6.41

compound: C[C@H]1C[C@@H]2[C@H]([C@@H](O)C[C@@]3(C)[C@H]2CC[C@]3(O)C(=O)CO)[C@@]2(C)C=CC(=O)C=C12 [Methylprednisolone] (drug 10000 nM)
systemTested: ZR-75-1 Tam1
viability inhibition at highest dose: 6.19

compound: O=C(c1ccc(OCCN2CCCCC2)cc1)c1c(-c2ccc(O)cc2)sc2cc(O)ccc12 [Raloxifene HCl] (drug 10000 nM)
systemTested: ZR-75-1 Tam1
viability inhibition at highest dose: 9.11

compound: CC(C)(C)c1cnc(CSc2cnc(NC(=O)C3CCNCC3)s2)o1 [SNS-032] (drug 10000 nM)
systemTested: ZR-75-1 Tam1
viability inhibition at highest dose: 45.3

compound: CC1(C)NC(=O)N(c2ccc([N+](=O)[O-])c(C(F)(F)F)c2)C1=O [Nilutamide] (drug 10000 nM)
systemTested: ZR-75-1 Tam1
viability inhibition at highest dose: 2.7

compound: CN1CC[C@H](c2c(O)cc(O)c3c(=O)cc(-c4ccccc4Cl)oc23)[C@H](O)C1 [Alvocidib (Flavopiridol)] (drug 10000 nM)
systemTested: ZR-75-1 Tam1
viability inhibition at highest dose: 49.9

compound: O=C(CCCCCCC(=O)Nc1ccccc1)NO [Vorinostat] (drug 10000 nM)
systemTested: ZR-75-1 Tam1
viability inhibition at highest dose: 38.9

compound: COc1cc(Nc2ncc3c(n2)-c2ccc(Cl)cc2C(c2c(F)cccc2OC)=NC3)ccc1C(=O)O [Alisertib (MLN8237)] (drug 10000 nM)
systemTested: ZR-75-1 Tam1
viability inhibition at highest dose: -1.42

compound: CC1=C2C[C@H]3[C@@H](CC=C4C[C@@H](O)CC[C@@]43C)[C@@H]2CC[C@]12O[C@@H]1C[C@H](C)CN[C@H]1[C@H]2C [Cyclopamine] (drug 10000 nM)
systemTested: ZR-75-1 Tam1
viability inhibition at highest dose: -2.07

compound: COc1cc2ncnc(Nc3ccc(F)c(Cl)c3)c2cc1OCCCN1CCOCC1 [Gefitinib] (drug 10000 nM)
systemTested: ZR-75-1 Tam1
viability inhibition at highest dose: 22.2

compound: CC(O)(CS(=O)(=O)c1ccc(F)cc1)C(=O)Nc1ccc(C#N)c(C(F)(F)F)c1 (stereo not given) [Bicalutamide] (drug 10000 nM)
systemTested: ZR-75-1 Tam1
viability inhibition at highest dose: -0.584

compound: COc1ccccc1S(=O)(=O)Nc1ccc2c(c1)CN(C)C(=O)N2 [PFI-1] (drug 10000 nM)
systemTested: ZR-75-1 Tam1
viability inhibition at highest dose: 23.8

compound: Clc1ccc(C(c2ccccc2Cl)C(Cl)Cl)cc1 (stereo not given) [Mitotane] (drug 10000 nM)
systemTested: ZR-75-1 Tam1
viability inhibition at highest dose: 1.3

compound: CNC(=O)c1ccc(N2C(=S)N(c3ccc(C#N)c(C(F)(F)F)c3)C(=O)C2(C)C)cc1F [Enzalutamide (MDV 3100)] (drug 10000 nM)
systemTested: ZR-75-1 Tam1
viability inhibition at highest dose: 6.65

compound: CO[C@H]1C[C@@H]2CC[C@@H](C)[C@@](O)(O2)C(=O)C(=O)N2CCCC[C@H]2C(=O)O[C@H]([C@H](C)C[C@@H]2CC[C@@H](OC(=O)C(C)(CO)CO)[C@H](OC)C2)CC(=O)[C@H](C)/C=C(\C)[C@@H](O)[C@@H](OC)C(=O)[C@H](C)C[C@H](C)/C=C/C=C/C=C/1C [Temsirolimus] (drug 100 nM)
systemTested: ZR-75-1 Tam1
viability inhibition at highest dose: 30.5

compound: C1CN1c1nc(N2CC2)nc(N2CC2)n1 [Triethylenemelamine] (drug 10000 nM)
systemTested: ZR-75-1 Tam1
viability inhibition at highest dose: -3.65

compound: CN1CCc2c(c3ccccc3n2Cc2ccc(C(=O)NO)cc2)C1 [Tubastatin A] (drug 10000 nM)
systemTested: ZR-75-1 Tam1
viability inhibition at highest dose: 16.1

compound: COc1cc(Nc2ncc(F)c(Nc3ccc4c(n3)NC(=O)C(C)(C)O4)n2)cc(OC)c1OC [Tamatinib (R406)] (drug 10000 nM)
systemTested: ZR-75-1 Tam1
viability inhibition at highest dose: 0.732
